Catalogue of TGI readings, one per entry.
System: EKVX NSCLC
PROTOCOL_SUMMARY: NCI tumour cell line growth inhibition, 48 h
Lab book: enter the figure in µM, no units written.

COMPOUND: C=CC(OC(C)=O)c1ccc(OC(C)=O)cc1 (stereo unspecified)
READOUT: TGI
QUANTITATIVE_READOUT: 41.4

TGI for CC(/C=C/NNC1=NC(c2ccccc2)C(c2ccccc2)=NN1)Sc1ccccc1N (stereo unspecified) is 32.8

TGI for "CCCCCCNC(=O)Oc1ccc(/C(=C(/C)Cc2ccc(OC)cc2)c2ccc(OCCN(C)C)cc2)cc1" is 10.1

---

System: ACHN renal
PROTOCOL_SUMMARY: NCI tumour cell line growth inhibition, 48 h; in the data active = GI50 below about 0.43 µM; inactive = the rest
Choose one outcome from this list and give only that: TRUE = active, FALSE = inactive

COMPOUND: Cn1cc(C2=C(c3cn(C)c4cc(N)ccc34)C(=O)NC2=O)c2ccccc21
ASSIGNED_CATEGORY: FALSE

COMPOUND: C[C@]12CC[C@@H](OC(=O)N(CCCl)N=O)C[C@@H]1CC[C@@H]1[C@@H]2CC[C@]2(C)C(=O)CC[C@@H]12
ASSIGNED_CATEGORY: FALSE

COMPOUND: CCCCN(CC)c1ncnc2ccc(Br)cc12
ASSIGNED_CATEGORY: FALSE

COMPOUND: COC(=O)c1ccc(CN2C(=O)C(Cl)=C(Nc3ccc(OC)c(Cl)c3)C2=O)cc1
ASSIGNED_CATEGORY: FALSE

COMPOUND: CCCCCCNC(=O)Oc1ccc(/C(=C(/C)Cc2ccc(OC)cc2)c2ccc(OCCN(C)C)cc2)cc1
ASSIGNED_CATEGORY: FALSE

In this assay, the call recorded for "CC[C@]1(O)C[C@@H]2CN(CCc3c([nH]c4ccccc34)[C@@](C(=O)OC)(c3cc4c(cc3OC)N(C)[C@H]3[C@@](O)(C(N)=O)[C@H](O)[C@]5(CC)[C@@H]6C[C@@H]6CN6CC[C@]43[C@@H]65)C2)C1" was what? TRUE

---

Catalogue of TGI readings, one per entry.
Test system: DLD-1 colon
PROTOCOL_SUMMARY: NCI tumour cell line growth inhibition, 48 h

COMPOUND: CCOC(=O)C1=C(Nc2ccc(Cl)c(Cl)c2)OC/C1=N\NC(=O)Cc1ccccc1
READOUT: TGI
RESULT: > 100 µM

TGI for "Cc1c(Cl)cccc1NC(=O)/C(Cl)=C(\Cl)C(=O)O" is 40.6 µM

TGI for "S=P(N1CCCC1)(N1CC1)N1CC1" is > 100 µM

TGI for "N#Cc1c(C[n+]2ccccc2)c2ccccc2oc1=O" is > 100 µM

TGI for "O=C1CCN2CCC(=O)c3c2c(cc2ccccc32)N1" is > 100 µM

TGI for CC1=NOC(=O)C1N=Nc1ccc(Br)c(C)c1 (stereo unspecified) is 63.1 µM

---

Catalogue of TGI readings, one per entry.
Tested on: K-562 leukemia
PROTOCOL_SUMMARY: NCI tumour cell line growth inhibition, 48 h

TGI for "COc1cc2c(cc1O)CCN(C)[C@H]2Cc1ccc(Oc2c(O)c(OC)cc3c2C[C@H]2c4c(c(OC)c(OC)c(OC)c4-3)CCN2C)cc1" is 3.33 µM

TGI for "O=P(O)(O)C=C=C1CCCCC1" is > 100 µM

TGI for "CC1(C)C=[N+]([O-])C(C)(C)N1O" is > 10 µM

TGI for COC(=O)C1CC23C=CCN4CC(C2C)C2(c5ccccc5NC12)C43 (stereo unspecified) is > 100 µM

TGI for "C=CCCCCn1c2ccccc2c2c(C)c3cnccc3c(C)c21" is 16.1 µM

TGI for "COC(=O)c1ccc2c(c1)C(=O)c1c-2n(CCCN)c(=O)c2cc(OC)c(OC)cc12" is 5.44 µM

TGI for "COc1cc2oc(=O)cc(C)c2c(OC)c1OC(C)=O" is > 100 µM

TGI for "C/C=C(/C)c1cnc(CC(C)C)c(=O)[nH]1" is > 100 µM

TGI for "S=P(N1CCCC1)(N1CC1)N1CC1" is > 100 µM

TGI for CC1=NOC(=O)C1N=Nc1ccc(Br)c(C)c1 (stereo unspecified) is 30.5 µM

TGI for "CC(=O)c1cc(-c2ccccc2N)n(-c2ccc3c(c2)OCO3)c1C" is > 100 µM

Measured values drawn from PubChem BioAssay (NCI) for this set.
